target.system: purified transglutaminase originating from Crassostrea gigas (Magallana gigas, UniProt A0A8W8K4D7)
Construct: Met-less mature form starts […]; recombinant enzyme from E. coli or yeast reported equivalent
Sequence (A0A8W8K4D7 entry or part of it with the stated changes): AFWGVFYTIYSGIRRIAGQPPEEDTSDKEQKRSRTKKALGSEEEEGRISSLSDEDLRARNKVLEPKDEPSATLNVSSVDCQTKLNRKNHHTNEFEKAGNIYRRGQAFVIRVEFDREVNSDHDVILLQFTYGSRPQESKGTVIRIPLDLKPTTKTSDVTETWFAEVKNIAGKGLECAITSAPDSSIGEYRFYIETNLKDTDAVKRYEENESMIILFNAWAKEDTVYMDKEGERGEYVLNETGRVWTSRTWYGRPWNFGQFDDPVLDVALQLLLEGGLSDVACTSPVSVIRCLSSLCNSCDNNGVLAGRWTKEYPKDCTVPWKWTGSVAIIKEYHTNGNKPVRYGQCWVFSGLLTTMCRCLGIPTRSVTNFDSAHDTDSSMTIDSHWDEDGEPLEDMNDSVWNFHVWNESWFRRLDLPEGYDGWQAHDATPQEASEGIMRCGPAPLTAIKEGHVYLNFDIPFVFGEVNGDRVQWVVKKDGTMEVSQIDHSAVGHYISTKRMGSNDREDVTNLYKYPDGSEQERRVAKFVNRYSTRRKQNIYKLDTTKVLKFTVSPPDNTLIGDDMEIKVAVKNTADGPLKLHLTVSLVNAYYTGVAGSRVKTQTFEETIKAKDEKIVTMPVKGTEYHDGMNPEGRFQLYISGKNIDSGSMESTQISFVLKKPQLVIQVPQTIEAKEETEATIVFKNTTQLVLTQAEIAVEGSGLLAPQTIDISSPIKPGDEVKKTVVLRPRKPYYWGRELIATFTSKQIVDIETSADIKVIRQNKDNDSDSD
Format: biochemical
details: synthetic substrate and hydroxylamine
Residues, ends and D or L forms follow the SMILES beside them. *: point of attachment. Cbz = O=C(OCc1ccccc1)*
endpoint.label: enzyme activity with synthetic substrate (in words)

compound: NC(=O)CC[C@H](NC(=O)OCc1ccccc1)C(=O)NCC(=O)O [CBZ-Gln-Gly, benzyloxycarbonyl glutaminyl glycine] (Cbz-Gln-Gly-OH)
observed.measurement: catalyzed the reaction

compound: CCOC(=O)CNC(=O)[C@H](CCC(N)=O)NC(=O)OCc1ccccc1 [CBZ-Gln-Gly-OEt] (Cbz-Gln-Gly-OEt)
observed.measurement: catalyzed the reaction

---

target.system: purified transglutaminase originating from Crassostrea gigas (Magallana gigas, UniProt A0A8W8K4D7)
Construct: Met-less mature form starts […]; recombinant enzyme from E. coli or yeast reported equivalent
Format: biochemical
details: final concentration 1 mM, treated at 25° C. for 10 minutes, reaction 37° C. 30 minutes
Experimental: The activity of the transglutaminase is determined by reacting the enzyme with dimethylated casein and monodansylcadaverine as substrates and measuring an increase in the fluorescent intensity of casein due to the incorporation of monodansylcadaverine into the dimethylated casein. The composition of the reaction solution is as follows: […]
Think of 60% as a floor: if Residual Activity stands on it or above, it is Fulfilled; beneath it, Not fulfilled.

molecule: [Ni+2]
class.name: Fulfilled
//
molecule: [Pb+2]
class.name: Not fulfilled
//
molecule: O=S(=O)(F)Cc1ccccc1 [Phenylmethylsulfone Fluoride]
class.name: Fulfilled
//
molecule: O=C(O)c1cc[c]([Hg][Cl])cc1
class.name: Not fulfilled
//
molecule: [Sr+2]
class.name: Fulfilled
